biological target: T1, wild type full length EGFR purified from A431 cells (human, UniProt P00533 25-1210); test: competition ELISA, competitor Ab-2; parameters: concentration or dose not given beside the values
T1 construct: mature; Bought; coated on ELISA wells; also called full length EGFR receptor antigen; Sigma E3641
Readings of % inhibition for the listed binders
parameter measured: % inhibition (%)

antibody 992 (antibody, human IgG1, kappa, V domains shown, Chimeric mouse/human IgG1 kappa; the VL entry includes the human kappa constant region) VH: EVQLQQPGSELVRPGASVKLSCKASGYTFTSYWMHWVKQRPGQGLEWIGNIYPGSRSTNYDEKFKSKATLTVDTSSSTAYMQLSSLTSEDSAVYYCTRNGDYYVSSGDAMDYWGQGTSVTVSS VL: DIQMTQTTSSLSASLGDRVTISCRTSQDIGNYLNWYQQKPDGTVKLLIYYTSRLHSGVPSRFSGSGSGTDFSLTINNVEQEDVATYFCQHYNTVPPTFGGGTKLEIKR | 77
antibody 1042 (antibody, human IgG1, kappa, V domains shown, Chimeric IgG1 kappa; RA- left out of the VH entry) VH: QVQLQQPGAELVKPGASVKLSCKASGYTFTSHWMHWVQQRPGQGLEWIGEIHPSNGRTNYNEKFKNKATLTVDKSPSTAYMQLSSLTSEDSAVYYCARYYGYDDAMDYWGQGTSVTVSS VL: DIVMTQAAFSNPVTLGTSASISCRSSKSLLHSNGITYLYWYLQKPGQSPQLLIYQMSNLASGVPDRFSSSGSRTDFTLRISRVEAEDVGVYYCAQNLELPYTFGGGTKLEIKR | 81
antibody 1308 (antibody, human IgG1, kappa, V domains shown, Chimeric IgG1 kappa) VH: EVQLQQSGAELVRPGSSVKISCKASGYAFSSYWMNWVRQRPGQGLEWIGQIYPGDGDTNYNGKFKGRATLTANKSSSTAYMQLSSLTSEDSAVYFCARRASSLYDVYPYYFDYWGQGTTLTVSS VL: DIQMTQTTSSLSASLGDRVTISCRASQDISNYLNWYQQKPDGTVKVLIYYTSRLHSGVPSRFSGSGSGTDYSLTISNLEQEDIATYFCQQGNTLPYTFGGGTKLEIKR | 11
antibody 1208 (antibody, human IgG1, kappa, V domains shown, Chimeric IgG1 kappa; also called clone 1208) VH: EVQLVESGGGLVKPGGSLKLSCAASGFAFSSYDMSWVRQTPEKRLEWVAYIGSGDDNTHYPDSVKGRFTISRHNAKNTLYLQMSSLKSEDTAMYYCARQKYGNYGDTMDYWGQGTSVTVSS VL: DVVMTQTPLSLPVSLGDQASISCRSSQSLVHSNGNTYLHWYLQKPGQSPKLLIYKVSNRFSGVPDRFSGSGSGTDFTLKISRVEAEDLGVYFCSQSTHVPTFGGGTKLEIKR | 20
antibody 1344 (antibody, human IgG1, kappa, V domains shown, Chimeric IgG1 kappa) VH: QVQLKESGPGLVAPSQSLSITCTVSGFSLTIYGVHWVRQPPGKGLEWLGVIWAGGNTNYNSALMSRLSISKDNSKSQVFLKMNSLQTDDTAMYFCARGYGYNLDYWGQGTTLTVSS VL: DIQMTQTTSSLSASLGDRVTISCSASQGISNYLNWYQQKPDGTVKLLIYYTSSLHSGVPSRFSGSGSGTDYSLTISNLEPEDIATYYCQQYSKLPYTFGGGTKLEIKR | 14
antibody 1024 (antibody, human IgG1, kappa, V domains shown, Chimeric IgG1 kappa) VH: QVQLQQPGAELVEPGGSVKLSCKASGYTFTSHWMHWVKQRPGQGLEWIGEINPSSGRNNYNEKFKSKATLTVDKSSSTAYMQFSSLTSEDSAVYYCVRYYGYDEAMDYWGQGTSVTVSS VL: DIVMTQAAFSNPVTLGTSASISCRSSKSLLHSNGITYLYWYLQKPGQSPQLLIYQMSNLASGVPDRFSSSGSGTDFTLRISRVEAEDVGVYYCAQNLELPYTFGGGTKLEIKR | 75
antibody 1261 (antibody, human IgG1, kappa, V domains shown, Chimeric IgG1 kappa) VH: EVQLVESGGGLVKPGGSLKLSCAVSGFTFSSYVMSWVRQTPEKRLEWVATITSGGRNIYYLDSVKGRFTISRDNAKNTLYLQMSSLRSEDTAMYYCARHEDYRYDGYYAMDYWGQGTSVTVSS VL: QIVLTQSPAIMSASPGEKVTITCSASSSVSYMHWFQQKPGTSPKLWIYSTSNLASGVPARFSGSGSGTSYSLTISRMEAEDAATYYCQQRSSYPYTFGGGTKLELKR | 6
